# Organism: Rattus norvegicus
# experiment-notes: Open TG-GATES - Regimen: Daily Repeat
# Format: toxicity, organism-based, Sprague-Dawley
# Set-up: regimen Daily Repeat, gender Male, age 6 weeks
# particulars: in vivo, po, 100 mg/kg, […], route gavage, dose level Low, time 7 day
Form field: TERMINAL_BW (one value per entry).
measured-property: TERMINAL_BW (g)

compound="NC(N)=Nc1nc(CSCCC(N)=NS(N)(=O)=O)cs1 [FAMOTIDINE]" observed=259.3
compound="CCOC(=O)CCC(=O)O[C@H]1[C@H](O[C@@H]2[C@@H](C)[C@H](O[C@H]3C[C@@](C)(OC)[C@@H](O)[C@H](C)O3)[C@@H](C)C(=O)O[C@H](CC)[C@@](C)(O)[C@H](O)[C@@H](C)C(=O)[C@H](C)C[C@@]2(C)O)O[C@H](C)C[C@@H]1N(C)C [ERYTHROMYCIN ETHYLSUCCINATE]" observed=255.3
compound="COC1=CC(=O)C[C@@H](C)[C@]12Oc1c(Cl)c(OC)cc(OC)c1C2=O [GRISEOFULVIN]" observed=262.3
compound="CCOc1ccc(NC(=O)CC(C)O)cc1 (stereo not given) [BUCETIN]" observed=303
compound="COc1ccc2[nH]c([S+]([O-])Cc3ncc(C)c(OC)c3C)nc2c1 (stereo not given) [OMEPRAZOLE]" observed=271.5

---

Form field: AST (one value per entry).
# Species: Rattus norvegicus
# experiment-notes: Open TG-GATES - Regimen: Single
# Type: toxicity, organism-based, Sprague-Dawley
# Parameters: regimen Single, gender Male, age 6 weeks
# particulars: in vivo, po, 100 mg/kg, 6 h, tissue Plasma, route gavage, dose level Low
measured-property: AST (IU/L)

compound="COC1=CC(=O)C[C@@H](C)[C@]12Oc1c(Cl)c(OC)cc(OC)c1C2=O [GRISEOFULVIN]" units_symbol=IU/L observed=70.8
compound="NC(N)=Nc1nc(CSCCC(N)=NS(N)(=O)=O)cs1 [FAMOTIDINE]" units_symbol=IU/L observed=68
compound="COc1ccc2[nH]c([S+]([O-])Cc3ncc(C)c(OC)c3C)nc2c1 (centres undefined) [OMEPRAZOLE]" units_symbol=IU/L observed=65
compound="CCOC(=O)CCC(=O)O[C@H]1[C@H](O[C@@H]2[C@@H](C)[C@H](O[C@H]3C[C@@](C)(OC)[C@@H](O)[C@H](C)O3)[C@@H](C)C(=O)O[C@H](CC)[C@@](C)(O)[C@H](O)[C@@H](C)C(=O)[C@H](C)C[C@@]2(C)O)O[C@H](C)C[C@@H]1N(C)C [ERYTHROMYCIN ETHYLSUCCINATE]" units_symbol=IU/L observed=72

---

Form field: Ht (one value per entry).
# Species on record: Rattus norvegicus
# experiment-notes: Open TG-GATES - Regimen: Daily Repeat
# Format: toxicity, organism-based, Sprague-Dawley
# Set-up: regimen Daily Repeat, gender Male, age 6 weeks
# particulars: in vivo, po, 0 mg/kg, […], tissue Blood, route gavage, dose level Control, time 14 day
measured-property: Ht (%)

compound="COc1ccc2[nH]c([S+]([O-])Cc3ncc(C)c(OC)c3C)nc2c1 (stereo not given)" measured_property=Ht units_symbol=% observed=42.6
compound=NC(N)=Nc1nc(CSCCC(N)=NS(N)(=O)=O)cs1 measured_property=Ht units_symbol=% observed=41.9
compound="CC(C)OC(=O)C(C)(C)Oc1ccc(C(=O)c2ccc(Cl)cc2)cc1 [FENOFIBRATE]" measured_property=Ht units_symbol=% observed=43.2
compound=CN(C)CCN(Cc1cccs1)c1ccccn1 measured_property=Ht units_symbol=% observed=40.9
compound=CN1C(=O)CN=C(c2ccccc2)c2cc(Cl)ccc21 measured_property=Ht units_symbol=% observed=45.6
compound="CCCNC(=O)NS(=O)(=O)c1ccc(Cl)cc1 [CHLORPROPAMIDE]" measured_property=Ht units_symbol=% observed=42.8
compound=CC1=C(/C=C/C(C)=C/C=C/C(C)=C/CO)C(C)(C)CCC1 measured_property=Ht units_symbol=% observed=38.7
compound=COC1=CC(=O)C[C@@H](C)[C@]12Oc1c(Cl)c(OC)cc(OC)c1C2=O measured_property=Ht units_symbol=% observed=42.2
compound=CN(C)CCCN1c2ccccc2CCc2ccccc21 measured_property=Ht units_symbol=% observed=42.1
compound="CCOc1ccc(NC(=O)CC(C)O)cc1 (stereo not given)" measured_property=Ht units_symbol=% observed=41.7

---

# Species on record: Rattus norvegicus
# experiment-notes: Open TG-GATES - Regimen: Daily Repeat
# Assay type: toxicity, organism-based, Sprague-Dawley
# Design: regimen Daily Repeat, gender Male, age 6 weeks
# particulars: in vivo, po, 10 mg/kg, […], tissue Plasma, route gavage, dose level Low, time 28 day
Form field: TBIL (one value per entry).
measured-property: TBIL (mg/dL)

compound=CN(C)CCN(Cc1cccs1)c1ccccn1 measured_property=TBIL observed=0.026
compound=CC1=C(/C=C/C(C)=C/C=C/C(C)=C/CO)C(C)(C)CCC1 measured_property=TBIL observed=0.016
compound=CN(C)CCCN1c2ccccc2CCc2ccccc21 measured_property=TBIL observed=0.052
compound="CC(C)OC(=O)C(C)(C)Oc1ccc(C(=O)c2ccc(Cl)cc2)cc1 [FENOFIBRATE]" measured_property=TBIL observed=0.028

---

# Species on record: Rattus norvegicus
# experiment-notes: Open TG-GATES - Regimen: Daily Repeat
# Type: toxicity, organism-based, Sprague-Dawley
# Design: regimen Daily Repeat, gender Male, age 6 weeks
# particulars: in vivo, po, 0 mg/kg, 72 h, tissue Kidney, route gavage, dose level Control, time 3 day
Form field: KIDNEY_TOTAL (one value per entry).
measured-property: KIDNEY_TOTAL (g)

compound="O=C(CCCN1CCC(O)(c2ccc(Cl)cc2)CC1)c1ccc(F)cc1 [HALOPERIDOL]" measured_property=KIDNEY_TOTAL units_symbol=g observed=2
compound="CN1C(=O)CN=C(c2ccccc2)c2cc(Cl)ccc21 [DIAZEPAM]" measured_property=KIDNEY_TOTAL units_symbol=g observed=2.2
compound="COc1ccc2[nH]c([S+]([O-])Cc3ncc(C)c(OC)c3C)nc2c1 (stereo not given) [OMEPRAZOLE]" measured_property=KIDNEY_TOTAL units_symbol=g observed=2.1
compound="COC1=CC(=O)C[C@@H](C)[C@]12Oc1c(Cl)c(OC)cc(OC)c1C2=O [GRISEOFULVIN]" measured_property=KIDNEY_TOTAL units_symbol=g observed=1.9
compound="CN(C)CCCN1c2ccccc2CCc2ccccc21 [IMIPRAMINE]" measured_property=KIDNEY_TOTAL units_symbol=g observed=2

---

Form field: Hb (one value per entry).
# Organism: Rattus norvegicus
# experiment-notes: Open TG-GATES - Regimen: Daily Repeat
# Type: toxicity, organism-based, Sprague-Dawley
# Design: regimen Daily Repeat, gender Male, age 6 weeks
# particulars: in vivo, po, 0 mg/kg, 72 h, tissue Blood, route gavage, dose level Control, time 3 day
measured-property: Hb (g/dL)

molecule="COc1ccc2[nH]c([S+]([O-])Cc3ncc(C)c(OC)c3C)nc2c1 (stereo unspecified)" units_symbol=g/dL observed=13.1
molecule="CCCNC(=O)NS(=O)(=O)c1ccc(Cl)cc1 [CHLORPROPAMIDE]" units_symbol=g/dL observed=13.2
molecule=NC(N)=Nc1nc(CSCCC(N)=NS(N)(=O)=O)cs1 units_symbol=g/dL observed=13.5
molecule=O=C(CCCN1CCC(O)(c2ccc(Cl)cc2)CC1)c1ccc(F)cc1 units_symbol=g/dL observed=13.8
molecule=COC1=CC(=O)C[C@@H](C)[C@]12Oc1c(Cl)c(OC)cc(OC)c1C2=O units_symbol=g/dL observed=12.8
molecule="CCOc1ccc(NC(=O)CC(C)O)cc1 (stereo unspecified)" units_symbol=g/dL observed=13.4
molecule="CCOC(=O)CCC(=O)O[C@H]1[C@H](O[C@@H]2[C@@H](C)[C@H](O[C@H]3C[C@@](C)(OC)[C@@H](O)[C@H](C)O3)[C@@H](C)C(=O)O[C@H](CC)[C@@](C)(O)[C@H](O)[C@@H](C)C(=O)[C@H](C)C[C@@]2(C)O)O[C@H](C)C[C@@H]1N(C)C [ERYTHROMYCIN ETHYLSUCCINATE]" units_symbol=g/dL observed=13.4
molecule=CC1=C(/C=C/C(C)=C/C=C/C(C)=C/CO)C(C)(C)CCC1 units_symbol=g/dL observed=13.6
molecule=CN(C)CCN(Cc1cccs1)c1ccccn1 units_symbol=g/dL observed=12.9
molecule=CN1C(=O)CN=C(c2ccccc2)c2cc(Cl)ccc21 units_symbol=g/dL observed=13.5
molecule=NNC(=O)c1ccncc1 units_symbol=g/dL observed=13.6

---

Form field: TG (one value per entry).
# Organism: Rattus norvegicus
# experiment-notes: Open TG-GATES - Regimen: Daily Repeat
# Format: toxicity, organism-based, Sprague-Dawley
# Set-up: regimen Daily Repeat, gender Male, age 6 weeks
# particulars: in vivo, po, 0 mg/kg, […], tissue Plasma, route gavage, dose level Control, time 14 day
measured-property: TG

compound=NNC(=O)c1ccncc1 observed="144 mg/dL"
compound="CC(C)OC(=O)C(C)(C)Oc1ccc(C(=O)c2ccc(Cl)cc2)cc1 [FENOFIBRATE]" observed="188 mg/dL"
compound=COC1=CC(=O)C[C@@H](C)[C@]12Oc1c(Cl)c(OC)cc(OC)c1C2=O observed="107.2 mg/dL"
compound=CN1C(=O)CN=C(c2ccccc2)c2cc(Cl)ccc21 observed="131.8 mg/dL"
compound="CCOc1ccc(NC(=O)CC(C)O)cc1 (configuration not stated)" observed="160.8 mg/dL"
compound=CN(C)CCN(Cc1cccs1)c1ccccn1 observed="128 mg/dL"
compound=O=C(CCCN1CCC(O)(c2ccc(Cl)cc2)CC1)c1ccc(F)cc1 observed="149 mg/dL"
